Readings of Conc for the listed compounds
Molecular target: Steroid 17-alpha-hydroxylase/17,20 lyase (Homo sapiens)
Sequence (P05093 whole entry): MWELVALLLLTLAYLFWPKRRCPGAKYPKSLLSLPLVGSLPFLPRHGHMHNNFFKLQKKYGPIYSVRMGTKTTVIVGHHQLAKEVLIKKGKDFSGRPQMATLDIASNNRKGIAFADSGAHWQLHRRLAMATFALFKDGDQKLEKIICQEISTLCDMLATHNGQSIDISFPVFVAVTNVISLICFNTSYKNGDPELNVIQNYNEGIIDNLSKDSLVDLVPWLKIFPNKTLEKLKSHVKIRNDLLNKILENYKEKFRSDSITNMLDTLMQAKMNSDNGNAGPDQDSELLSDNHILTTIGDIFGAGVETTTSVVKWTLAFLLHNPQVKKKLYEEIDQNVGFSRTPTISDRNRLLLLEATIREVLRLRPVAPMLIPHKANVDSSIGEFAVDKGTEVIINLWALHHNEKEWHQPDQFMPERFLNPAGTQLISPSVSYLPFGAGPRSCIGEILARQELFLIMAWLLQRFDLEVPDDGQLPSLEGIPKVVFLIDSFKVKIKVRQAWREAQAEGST
Experiment: Inhibition of human testicular microsomal Cytochrome P450 17A1
readout: Conc

> print(dat)
                                   compound  result
1  C[C@]12CCC(=O)C=C1CCC1C2CC[C@@]2(C)C1CC[C@@H]2C1N=CC=N1 (some centres undefined)  400 nM
2  Cc1nc(C2CCC3C4CC=C5CC(O)CC[C@]5(C)C4CC[C@]23C)co1 (some centres undefined)  400 nM
3  C[C@]12CCC(O)CC1=CCC1C2CC[C@@]2(C)C1CC[C@@H]2c1c[nH]c(-c2ccccc2)n1 (some centres undefined)  400 nM
4  C[C@]12CCC(O)CC1=CCC1C2CC[C@]2(C)C(c3ccnn3-c3ccccc3)=CCC12 (some centres undefined)  150 nM
5  C[C@]12CCC3C(CC=C4CC(O)CC[C@@]43C)C1CCC2c1ccno1 (some centres undefined)  150 nM
6  C[C@]12CCC3C(CC=C4CC(O)CC[C@@]43C)C1CCC2c1ccn[nH]1 (some centres undefined)  150 nM
7  Cn1ccc(C2=CCC3C4CC=C5CC(O)CC[C@]5(C)C4CC[C@]23C)n1 (some centres undefined)  150 nM
8  Cn1nccc1C1=CCC2C3CC=C4CC(O)CC[C@]4(C)C3CC[C@]12C (some centres undefined)  150 nM
9  C[C@]12CCC3C(CC=C4CC(O)CC[C@@]43C)C1CCC2c1ncc[nH]1 (some centres undefined)  400 nM

###

Readings of Inhibition for the listed compounds
Target: Steroid 17-alpha-hydroxylase/17,20 lyase (Rattus norvegicus, UniProt P11715)
Sequence (P11715 whole entry): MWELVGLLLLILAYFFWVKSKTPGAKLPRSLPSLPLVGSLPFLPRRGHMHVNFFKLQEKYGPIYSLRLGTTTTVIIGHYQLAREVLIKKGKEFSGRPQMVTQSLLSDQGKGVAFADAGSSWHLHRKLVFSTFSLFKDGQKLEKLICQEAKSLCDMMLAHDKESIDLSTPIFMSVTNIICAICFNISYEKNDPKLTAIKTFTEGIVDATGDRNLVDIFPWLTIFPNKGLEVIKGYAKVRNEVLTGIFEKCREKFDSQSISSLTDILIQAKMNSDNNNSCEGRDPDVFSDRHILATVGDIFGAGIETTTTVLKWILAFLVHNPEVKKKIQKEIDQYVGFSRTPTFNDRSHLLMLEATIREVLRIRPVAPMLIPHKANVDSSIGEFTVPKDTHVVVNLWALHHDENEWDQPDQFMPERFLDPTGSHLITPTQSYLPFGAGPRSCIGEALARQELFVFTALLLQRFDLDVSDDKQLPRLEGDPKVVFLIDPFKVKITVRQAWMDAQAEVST
Test: Percent inhibition of rat testicular microsomal Cytochrome P450 17A1
Parameters: concentration or dose not given beside the values
readout: Inhibition (%)

> print(dat)
                                   compound     readout  u  readout.number
1  C[C@]12CCC3C(CC=C4CC(O)CC[C@@]43C)C1CCC2c1ccno1 (stereo not given in full)  Inhibition  %              93
2  C[C@]12CCC(=O)C=C1CCC1C2CC[C@@]2(C)C1CC[C@@H]2C1N=CC=N1 (stereo not given in full)  Inhibition  %              25
3  CC(=O)O[C@H]1CC[C@@]2(C)C(=CC[C@@H]3[C@@H]2CC[C@]2(C)C(c4cnc[nH]4)=CC[C@@H]32)C1  Inhibition  %              92
4  CC(=O)O[C@H]1CC[C@@]2(C)C(=CC[C@H]3[C@@H]4CC[C@H](c5c[nH]cn5)[C@@]4(C)CC[C@@H]32)C1  Inhibition  %              55
5  C[C@]12CCC3C(CC=C4CC(O)CC[C@@]43C)C1CCC2c1ccon1 (stereo not given in full)  Inhibition  %              54
